Sourced from ChEMBL document CHEMBL1759883

- target.system: Nitric oxide synthase 1 (Rattus norvegicus) (UniProt P29476)
- Sequence (P29476 whole entry): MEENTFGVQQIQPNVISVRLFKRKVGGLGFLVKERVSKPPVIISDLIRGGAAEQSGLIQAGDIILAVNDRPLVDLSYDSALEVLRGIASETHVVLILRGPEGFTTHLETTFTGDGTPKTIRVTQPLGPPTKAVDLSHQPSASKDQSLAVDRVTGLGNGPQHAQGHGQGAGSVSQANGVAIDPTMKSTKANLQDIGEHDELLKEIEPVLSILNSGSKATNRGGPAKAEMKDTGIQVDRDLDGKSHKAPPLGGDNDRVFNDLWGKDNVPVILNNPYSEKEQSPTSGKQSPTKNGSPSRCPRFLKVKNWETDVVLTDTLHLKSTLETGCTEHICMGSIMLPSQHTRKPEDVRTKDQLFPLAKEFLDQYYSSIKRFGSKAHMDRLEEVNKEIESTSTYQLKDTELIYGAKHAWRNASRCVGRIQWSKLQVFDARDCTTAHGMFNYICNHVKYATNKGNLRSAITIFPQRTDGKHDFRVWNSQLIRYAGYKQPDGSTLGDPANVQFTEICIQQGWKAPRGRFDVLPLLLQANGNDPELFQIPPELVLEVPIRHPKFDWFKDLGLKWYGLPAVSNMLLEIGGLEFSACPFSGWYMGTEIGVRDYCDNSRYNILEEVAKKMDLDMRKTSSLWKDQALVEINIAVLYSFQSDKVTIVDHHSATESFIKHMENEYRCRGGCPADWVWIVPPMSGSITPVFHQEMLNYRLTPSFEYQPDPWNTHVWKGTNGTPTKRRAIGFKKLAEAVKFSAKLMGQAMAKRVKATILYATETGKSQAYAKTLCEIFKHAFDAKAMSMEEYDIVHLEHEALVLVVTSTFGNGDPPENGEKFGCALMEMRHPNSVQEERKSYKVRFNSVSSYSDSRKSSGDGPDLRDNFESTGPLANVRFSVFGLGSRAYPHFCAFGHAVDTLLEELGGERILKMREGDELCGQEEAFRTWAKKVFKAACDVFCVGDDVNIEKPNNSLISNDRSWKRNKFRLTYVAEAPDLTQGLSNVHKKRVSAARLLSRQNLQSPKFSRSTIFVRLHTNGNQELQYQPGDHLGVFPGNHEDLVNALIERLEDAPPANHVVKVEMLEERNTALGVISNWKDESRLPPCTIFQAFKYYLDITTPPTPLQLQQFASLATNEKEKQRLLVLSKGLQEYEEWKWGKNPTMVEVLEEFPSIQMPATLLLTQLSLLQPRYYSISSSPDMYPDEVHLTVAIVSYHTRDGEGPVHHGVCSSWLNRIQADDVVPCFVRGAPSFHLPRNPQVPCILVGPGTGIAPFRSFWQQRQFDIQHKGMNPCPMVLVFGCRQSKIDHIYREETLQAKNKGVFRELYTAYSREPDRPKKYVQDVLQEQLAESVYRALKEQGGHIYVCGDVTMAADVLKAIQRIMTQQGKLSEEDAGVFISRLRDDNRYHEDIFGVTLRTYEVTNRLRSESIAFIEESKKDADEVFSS
- test.summary: Inhibition of nNOS in untreated Wistar rat striata assessed as inhibition of [3H]L-arginine to [3H]L-citrulline conversion at 1 mM by liquid scintillation counting
Recorded measurements of inhibition, one per entry

| smiles.str | inhibition [%] |
| --- | --- |
| Oc1n[nH]c2c(F)c(F)ccc12 | 57.1 |
| Oc1n[nH]c2ccccc12 | 31.4 |
| Fc1c(F)c(F)c2[nH]ncc2c1F | 43.3 |
| Cc1n[nH]c2c(F)c(F)c([N+](=O)[O-])cc12 | 85.4 |
| CCOC(=O)c1c(F)c(F)c(F)c2[nH]nc(O)c12 | 1.2 |
| CCc1n[nH]c2ccccc12 | 18.8 |
| Cc1n[nH]c2c([N+](=O)[O-])c(F)cc(F)c12 | 90 |
| COC(=O)c1c(F)c(F)c(F)c2[nH]nc(O)c12 | 6.3 |
| Cc1n[nH]c2c(F)c(F)ccc12 | 58.4 |
| CCOC(=O)c1c(F)c(F)c(F)c2c(O)n[nH]c12 | 5.6 |
| O=C(O)c1c(F)c(F)c(F)c2c(O)n[nH]c12 | 11.1 |
| COC(=O)c1c(F)c(F)c2c(O)n[nH]c2c1F | 19.7 |
| Cc1n[nH]c2cc(F)cc(F)c12 | 52.1 |

----------
Recorded measurements of inhibition, one per entry
- target.system: Nitric oxide synthase, inducible (Rattus norvegicus)
- test.summary: Inhibition of iNOS in LPS-stimulated Wistar rat lung assessed as inhibition of [3H]L-arginine to [3H]L-citrulline conversion at 1 mM by liquid scintillation counting

| smiles.str | measure.unit | inhibition |
| --- | --- | --- |
| Oc1n[nH]c2c(F)c(F)ccc12 | % | 89.1 |
| Cc1n[nH]c2c(F)c(F)ccc12 | % | 69.2 |
| O=[N+]([O-])c1cccc2c(O)n[nH]c12 | % | 8.2 |
| COC(=O)c1c(F)c(F)c2[nH]nc(O)c2c1F | % | 48.9 |
| CCOC(=O)c1c(F)c(F)c(F)c2[nH]nc(O)c12 | % | 38.7 |
| O=C(O)c1c(F)c(F)c(F)c2[nH]nc(O)c12 | % | 62.6 |
| O=[N+]([O-])c1c(F)cc(F)c2c(O)n[nH]c12 | % | 91 |
| COc1cccc2c[nH]nc12 | % | 70 |
| N#Cc1cccc2cn[nH]c12 | % | 80 |
| O=C(O)c1c(F)c(F)c2c(O)n[nH]c2c1F | % | 42 |
| CCOC(=O)c1c(F)c(F)c2c(O)n[nH]c2c1F | % | 53.5 |
| Oc1n[nH]c2ccccc12 | % | 55.1 |
| COC(=O)c1c(F)c(F)c(F)c2[nH]nc(O)c12 | % | 22.6 |
